- Target system: UniProt:P08912
- Sequence (P08912 whole entry): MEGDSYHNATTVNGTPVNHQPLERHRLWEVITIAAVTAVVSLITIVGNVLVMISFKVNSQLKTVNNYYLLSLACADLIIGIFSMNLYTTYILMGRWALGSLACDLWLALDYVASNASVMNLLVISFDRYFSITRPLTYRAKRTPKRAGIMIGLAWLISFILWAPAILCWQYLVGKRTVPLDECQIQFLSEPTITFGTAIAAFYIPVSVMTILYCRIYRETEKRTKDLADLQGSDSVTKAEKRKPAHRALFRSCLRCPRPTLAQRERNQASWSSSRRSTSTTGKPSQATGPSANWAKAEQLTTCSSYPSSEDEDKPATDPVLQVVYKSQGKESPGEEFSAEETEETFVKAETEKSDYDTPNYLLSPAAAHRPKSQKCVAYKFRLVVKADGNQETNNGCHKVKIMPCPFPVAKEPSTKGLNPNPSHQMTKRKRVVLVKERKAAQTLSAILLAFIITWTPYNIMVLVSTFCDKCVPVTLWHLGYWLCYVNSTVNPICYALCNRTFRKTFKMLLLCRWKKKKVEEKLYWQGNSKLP
- Protocol text: R-SAT assay, Acetylcholine m5
- Test conditions: competitive antagonist mode; negative of the calculated potency in Molar
pKi: −log10 of the molar value.
Experimental endpoint: pKi

Task: What value of pKi has been reported for the following molecule? CN(C)CCC1(c2ccc(Cl)cc2)Cc2ccccc2C(=O)O1 (stereo not shown)
Output: < 5.65

----------
- Target system: urotensin II receptor (Homo sapiens)
- Construct: expressed in transfected cells; host or cells: NIH3T3
- Sequence (Q9UKP6 whole entry): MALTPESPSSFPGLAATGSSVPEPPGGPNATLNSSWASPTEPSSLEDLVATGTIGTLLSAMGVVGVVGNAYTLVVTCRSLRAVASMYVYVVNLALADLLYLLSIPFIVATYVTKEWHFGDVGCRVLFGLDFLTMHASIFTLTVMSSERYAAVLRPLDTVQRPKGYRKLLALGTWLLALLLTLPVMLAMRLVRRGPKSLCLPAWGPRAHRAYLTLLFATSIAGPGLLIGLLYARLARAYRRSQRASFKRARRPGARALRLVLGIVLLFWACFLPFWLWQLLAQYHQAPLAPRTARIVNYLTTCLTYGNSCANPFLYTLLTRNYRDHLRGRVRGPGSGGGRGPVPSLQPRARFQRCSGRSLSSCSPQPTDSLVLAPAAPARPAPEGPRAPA
- Protocol text: R-SAT assay, Urotensin II receptor
- Format: cell-based
- Test conditions: functional potency, Example 1 (Method 1); read-out: EC50 for the urotensin II receptor
Experimental endpoint: pEC50
The read-out pEC50 is expressed as -log10 of concentration in moles per litre.

Task: Can you look up pEC50 on urotensin II receptor (Homo sapiens) for CN(C)CCC1(c2ccc(Cl)cc2)Cc2ccccc2C(=O)O1 (stereo not shown) [Formula III] ?
Output: 6.70
